Value source: patent US20210403579A1

- subject.of.test: T1, Mouse ST2 (mouse, UniProt P14719 27-332, limits assumed)
- T1 construct: also called mouse ST2 protein
- T1 sequence (looked up): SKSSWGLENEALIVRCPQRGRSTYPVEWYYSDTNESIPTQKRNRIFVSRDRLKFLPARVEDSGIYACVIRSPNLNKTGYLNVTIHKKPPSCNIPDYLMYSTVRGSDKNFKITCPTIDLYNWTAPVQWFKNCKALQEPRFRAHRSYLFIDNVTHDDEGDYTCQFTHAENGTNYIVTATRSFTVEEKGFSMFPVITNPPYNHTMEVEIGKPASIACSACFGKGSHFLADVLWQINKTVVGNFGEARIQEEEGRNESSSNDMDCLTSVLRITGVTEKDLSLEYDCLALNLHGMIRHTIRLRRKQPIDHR
- test.protocol: SPR (Carterra), antibody immobilized, ST2 analyte, 1:1
koff by entry:
Write down the numeric answer in s⁻¹ and omit the unit.

Record excerpt, results attached:
{"binder": "Human ST2 IgG1 Antibody 25 (antibody, V domains shown, IgG1, kappa; also called ST2 Antibody 25) VH: QVQLVQSGAEVKKPGSSVKVSCKASGGTFSNYAISWVRQAPGQGLEWMGWISAYNGNTNYAQKFQGRVTMTRDTSTSTVYMELSSLRSEDTAVYYCARSTNALDYWGQGTLVTVSS VL: DIQMTQSPSSLSASVGDRVTITCRASQGIRSNLDWYQQKPGKAPKLLISIVSNLGSGVPSRFSGSGSGTDFTLTISSLQPEDFATYYCLQHNSNPPTFGGGTKVEIKR", "koff, s⁻¹": 0.064}
{"binder": "Human ST2 IgG1 Antibody 63 (antibody, V domains shown, IgG1, kappa; also called ST2 Antibody 63) VH: QVQLVQSGAEVKKPGSSVKVSCKASGGTFSSDAINWVRQAPGQGLEWMGGIVPAFGTANYAQKFQGRVTITADESTSTAYMELSSLRSEDTAVYYCARSSSSWPYYYYYMDVWGKGTTVTVSS VL: DIVMTQSPLSLPVTPGEPASISCRSSQSLLLNNGNNFIDWYLQKPGQSPQLLIYAASILQGGVPDRFSGSGSGTDFTLKISRVEAEDVGVYYCMQALQTPPTFGQGTKVEIKR", "koff, s⁻¹": 0.15}

Now let's try a different one.
Request the reported koff associated with Human ST2 IgG1 Antibody 29 (antibody, V domains shown, IgG1, kappa; also called ST2 Antibody 29) VH: QVQLVQSGAEVKKPGASVKVSCKASGGTFTGYFIHWVRQAPGQGLEWMGWMNPNSGNTGYAQKFQGRVTMTRDTSTSTVYMELSSLRSEDTAMYYCAREGQGVVPVDYWGQGTLVTVSS VL: DIQMTQSPSSLSASVGDRVTITCRASQSISSWLAWYQQKPGKAPKLLIYDATNLETGVPSRFSGSGSGTDFTLTISSLQPEDFATYYCLQDYNYPLTFGQSTKVEIKR
0.0045
